# Test name: Cytotoxicity against human CEM-SS cells after 72 hrs by MTT assay
# Assay type: cell-based
Measured property: CC50 at 72 h (µM)
The response must be a number in µM with no trailing unit.

Consider the compound Oc1cc(O)cc(Oc2c(O)cc(O)c3c2Oc2c(O)cc(O)c(-c4c(O)cc(O)c5c4Oc4c(O)cc(O)c(Oc6cc(O)cc(O)c6)c4O5)c2O3)c1 and give its measured CC50 at 72 h. 484

* * *

# Assay system: Protease (Human immunodeficiency virus 1)
# Sequence (Q9YQ12 whole entry): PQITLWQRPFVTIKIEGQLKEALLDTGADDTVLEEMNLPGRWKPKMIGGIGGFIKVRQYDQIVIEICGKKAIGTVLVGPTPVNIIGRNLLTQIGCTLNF
# Test name: Inhibition of HIV1 3B recombinant protease
Measured property: pIC50
Just so you know, pIC50 here is -log10 of the concentration in molar units; reply with that number alone.

Consider the compound Oc1cc(O)cc(Oc2c(O)cc(O)c3c2Oc2c(cc(O)c(-c4c(O)cc5c(c4O)Oc4c(Oc6cc(O)cc(O)c6)c(O)cc(O)c4O5)c2O)O3)c1 and give its measured pIC50. 4.09

* * *

Reported EC50 values are given for each entry in this list.
# Assay system: Human immunodeficiency virus type 1 reverse transcriptase (Human immunodeficiency virus 1)
# Test name: Inhibition of HIV1 3B reverse transcriptase activity

Oc1cc(O)cc(Oc2c(O)cc(O)c3c2Oc2c(cc(O)c(-c4c(O)cc5c(c4O)Oc4c(Oc6cc(O)cc(O)c6)c(O)cc(O)c4O5)c2O)O3)c1 = 510 nM

Would you kindly look at the next entry?
Consider the molecule Oc1cc(O)cc(Oc2c(O)cc(O)c3c2Oc2c(O)cc(O)c(-c4c(O)cc(O)c5c4Oc4c(O)cc(O)c(Oc6cc(O)cc(O)c6)c4O5)c2O3)c1 and give its measured EC50. 1070 nM
